We begin with a simple list: items and their reported Intestine uptake.
Test system: mice bearing PSMA-expressing LNCAP cancer xenografts
Experiment: Biodistribution of 68Ga-labeled compounds
Format: in vivo
Conditions: 3 h post-injection
Return type: number; implicit unit % ID/g.

Examples with their reported Intestine uptake follow.
O=C([O-])CN1CCN(CC(=O)[O-])CCN(CC(=O)NCCCC[C@H](NC(=O)CNC(=O)CCCc2ccc(F)cc2)C(=O)NC[C@H]2CC[C@H](C(=O)N[C@@H](Cc3ccc4ccccc4c3)C(=O)NCCCC[C@H](NC(=O)N[C@@H](CCC(=O)O)C(=O)O)C(=O)O)CC2)CCN(CC(=O)[O-])CC1.[68Ga+3] [^68Ga-HTK03085] ... 0.39
O=C([O-])CN1CCN(CC(=O)[O-])CCN(CC(=O)NCCCC[C@H](NC(=O)CNC(=O)CCCc2ccc(Br)cc2)C(=O)NC[C@H]2CC[C@H](C(=O)N[C@@H](Cc3ccc4ccccc4c3)C(=O)NCCCC[C@H](NC(=O)N[C@@H](CCC(=O)O)C(=O)O)C(=O)O)CC2)CCN(CC(=O)[O-])CC1.[68Ga+3] [^68Ga-HTK03058] ... 1.63

Field Intestine uptake (entry O=C([O-])CN1CCN(CC(=O)[O-])CCN(CC(=O)NCC2CCC(C(=O)NC(Cc3c4ccccc4cc4ccccc34)C(=O)NCCCCC(NC(=O)NC(CCC(=O)O)C(=O)O)C(=O)O)CC2)CCN(CC(=O)[O-])CC1.[68Ga+3] (stereo not drawn) [^68Ga-HTK03041] ) reads 0.67
